Test system: HepG2
Experiment: GSK_TCMDC: Percent inhibition of human HepG2 cell line. Test compounds present at 10uM.
Type: functional
experimentalReadout: Inhibition (%)
Note: unit % is implicit; provide only the numeric part.

Worked examples follow.
Cl.c1ccc(COc2ccc(Nc3ncnc4ccc(-c5ccc(CN6CCSCC6)o5)cc34)cc2)cc1 | 4
Cc1ccc([N+](=O)[O-])cc1NC(=O)N(CC(O)c1ccccc1)C1CCCCC1 (stereo unspecified) | 11
CS(=O)(=O)CCNCc1cccc(-c2cc3nccc(Nc4ccc(Oc5ccccc5)cc4)c3cc2Cl)c1 | 2
COc1ccc(-c2cccc(NC(=O)c3ccccc3)c2)cc1CN1CCCN(C)CC1.O=C(O)C(F)(F)F | 22
COc1cc(C(F)(F)F)c2cc(CNCCCNc3nc4ccccc4[nH]3)[nH]c2c1 | 60

Continue with the compound presented below.
Find the measured Inhibition of Cl.Nc1nc(Nc2ccc(Cl)cc2)nc2ccccc12 and report it.
6

----------
System: Plasmodium falciparum
Assay: GSK_TCMDC: Inhibition of Plasmodium falciparum 3D7 in whole red blood cells, using parasite LDH activity as an index of growth. Test compounds present at 2uM
Assay type: functional
Listing of recorded Inhibition by entry.
Write it as a number; the unit % goes unstated.

Example results:
COc1cccc(-c2nn(C)c3sc(C(=O)NCCN(C)Cc4ccccc4)cc23)c1 | 92
CC(=O)C1=NN(c2ccc(C)cc2)C(c2cccs2)N1c1ccccc1 (stereo unspecified) | 89
CC(Cc1ccc(OCCN2CCN(c3ccccc3)CC2)cc1)NCC(O)c1cccc(Cl)c1F.Cl (stereo unspecified) | 92
CC(C)c1ccc(NC(=O)c2ccc(C(=O)NC3CCN(CC4CCCCC4)C3)cc2)cc1.O=C(O)C(F)(F)F (stereo unspecified) | 93
Cc1cc(CN2CCC(Nc3ncc(-c4ccsc4)c4nc(C(F)(F)F)ccc34)CC2)no1.Cl | 81

Return the recorded Inhibition value; entry: CCOc1ccc(C2CCN(CCCCNC(=O)c3ccc(NC(=O)c4ccc(Cl)cc4)cc3)CC2)c(OCC)c1.Cl
100

Consider the compound O=C(Nc1cccc(-c2nc3ccccc3[nH]2)c1)c1ccc(-c2cccc([N+](=O)[O-])c2)o1 and give its recorded Inhibition.
93

Give a short answer stating reported Inhibition for CCC(C(C)C)n1ccc2c3c(N)nc(N)nc3ccc21 (stereo unspecified) .
95

Name the recorded Inhibition of the compound listed here: CN1CCC(NCc2cccc(-c3ccc(S(=O)(=O)NCCc4ccccn4)cc3)c2)CC1.O=C(O)C(F)(F)F
95

Specify Inhibition for COc1ccc2ncc(C#N)c(CCN3C4CCC3CC(NCc3ccc5c(n3)NC(=O)CS5)C4)c2c1.Cl (stereo unspecified) and stop.
95

State, in one line, measured Inhibition of OCC(c1ccccc1)n1c(COc2ccc(Cl)cc2)nc2c(OCCCN3CCCCC3)cccc21 (stereo unspecified)
90

----------
Tested on: Plasmodium falciparum
Assay: GSK_TCMDC: Inhibition of Plasmodium falciparum Dd2 in whole red blood cells, using parasite LDH activity as an index of growth. Test compounds present at 2uM
Assay type: functional
The following compounds are shown together with reported Inhibition values.
Give the number; % is assumed, so skip it.

Give the observed Inhibition of CC(=O)NCCNc1nccc(N2CCc3ncnc(Nc4ccc(OCc5ccccn5)c(Cl)c4)c3C2)n1 for Plasmodium falciparum.
99

Provide Plasmodium falciparum Inhibition reading for O=C(Nc1ccc(Cl)cc1)c1cccc2nc(C(F)(F)F)[nH]c12 .
98

# return Inhibition of Cc1cccc2nc(-c3ccc(-c4ccc(CNCCCN5CCCC5=O)cc4)s3)[nH]c12.O=C(O)C(F)(F)F (system: Plasmodium falciparum)
43

Lab note: record Inhibition of O=C(N/C(=C/c1cccc([N+](=O)[O-])c1)c1nc2ccccc2[nH]1)c1cccc(Br)c1 tested on Plasmodium falciparum.
88

Please report Inhibition with Plasmodium falciparum for item CC(=O)N(Cc1nc(-c2cc(Cl)c(Cl)s2)cs1)c1c(C)cccc1C .
95

Fetch value of Inhibition on Plasmodium falciparum for CC(=O)Nc1ccc(OCCCCN(Cc2ccccc2C(F)(F)F)c2ccc(C(F)(F)F)c(C#N)c2)c(Cl)c1 .
96

----------
The entries below come with measured Inhibition values attached.
System: Plasmodium falciparum
Assay: GSK_TCMDC: Inhibition of Plasmodium falciparum Dd2 in whole red blood cells, using parasite LDH activity as an index of growth. Test compounds present at 2uM
Type: functional
Write the answer as a number in %, unit excluded.

Consider the following illustrative entries.
CN1CCN(Cc2cccc(Nc3nccc(Nc4ccc(Oc5ccccc5)cc4)n3)c2)CC1 | 80
c1cc(-c2nc3ccccc3[nH]2)nc(-c2nc3ccccc3[nH]2)c1 | 24
CCOC(=O)[C@H](Cc1cc([N+](=O)[O-])c(Oc2ccc(OC)c(Cc3ccc(OC)c(C(C)C)c3)c2)c([N+](=O)[O-])c1)NC(=O)C(F)(F)F | 0
CC(CN(C)C)C(=O)Nc1cccc(-c2ccc(-c3nc4ccccc4[nH]3)s2)c1 (configuration not stated) | 47

Next compound, Inhibition to be filled in.
Quick one: give measured Inhibition for Cn1nc2ccc3ccccc3c2nc1=N.I
85

----------
Test system: HepG2
Assay: GSK_TCMDC: Percent inhibition of human HepG2 cell line. Test compounds present at 10uM.
Format: functional
Hi all, reminder that labels come from Inhibition, split as range A (below 10%), range B (10% to below 40%), range C (40% or more)

Which class does CO.Cc1nc(N)nc(N)c1OCc1cccc2c1ccc1ccccc12.Cl fall in?
range C

Band assignment needed for COC(=O)c1ccc2[nH]cc(C3CCN(CCC4CCN(C(=O)/C=C/c5ccc(Cl)c(Cl)c5)CC4)CC3)c2c1 please.
range B

Given CC(=O)O.Nc1nc(N)c2cc3ccc(OCc4ccccc4)cc3nc2n1 , name the class its Inhibition places it in.
range C

Could you place CC1CCC(NC(=O)c2nn(-c3ccc(Cl)cc3)c(=O)c3ccccc23)CC1 (centres undefined) in its proper category? Many thanks.
range A

Which class does Br.CCCN(CCCCCCN(CCC)CCc1ccc(O)c(O)c1)CCc1ccc(O)cc1 fall in?
range A

Form: Item = O=C(Nc1ccc(-c2cccc(-c3nc4ccccc4[nH]3)c2)cc1)Nc1ccc(Cl)c(Cl)c1 ; Class = ?
range C

Returns: class label. Input: COc1ccc2nc3cc(Cl)ccc3c(NCCCCN3CCNCC3)c2c1.Cl
range B

Sort Br.C=CCNC(CCCCC)c1ccc(OCCOc2ccc(C(CCCCC)NCC=C)cc2)cc1 (centres undefined) into one of the categories.
range C

Which bin, given its Inhibition, does Cc1nnsc1C(=O)Nc1cccc(-c2ccc(-c3nc4ccccc4[nH]3)s2)c1 occupy?
range C

Please classify: CC1CCN(CCCNc2ccc(C(=O)Nc3ccc(C(F)(F)F)cc3)cc2[N+](=O)[O-])CC1
range C

Pick a category. Item: COc1cccc(OC)c1CN1CCC(N(C)CCCCCCCCCN2CCC(OC(=O)Nc3ccccc3-c3ccccc3)CC2)CC1
range C

Category of Cl.N=C(N)Nc1ccc(NC(=O)Nc2ccc(NC(=N)N)cc2)cc1 :
range A

GET /class?item= COc1ccc2ccc(OC)c(CNCCCCCCNCc3c(OC)ccc4ccc(OC)cc34)c2c1.CS(=O)(=O)O
range C

Each molecule maps to one class by Inhibition. Which class for Cl.O=C1c2ccccc2CN1CCCN1CCC(Oc2ccc(F)cc2)CC1 ?
range B

Class (by measured Inhibition) for COc1ccc(-c2cccc(CNC3CCN(CC4Cn5c(=O)ccc6ccc(F)c4c65)CC3)c2)cc1.O=C(O)C(F)(F)F (centres undefined)
range B

Form field 'band' for COc1ccc2nccc([C@@H](O)CN3CCC(NC(=O)c4cc5ccccc5[nH]4)CC3)c2c1.CS(=O)(=O)O
range B

Any idea which band CCOc1ccc2c(=NN=Cc3ccc(F)cc3)cc(C)[nH]c2c1 is in?
range B

Which band does N#Cc1ccc(NC(=O)Nc2ccc(OC(F)(F)F)cc2)cc1 fall in?
range C

Which class holds CC(Oc1ccc(Cl)cc1)C(=O)Nc1cc(C(F)(F)F)ccc1-n1cncn1 (centres undefined) ?
range A

Lab log: CC1(C)C=C(c2ccncc2)c2cc(Cl)ccc2O1.Cl — assign Inhibition category
range A

----------
Listed here are molecules together with their documented Inhibition.
Tested on: Plasmodium falciparum
Test: GSK_TCMDC: Inhibition of Plasmodium falciparum Dd2 in whole red blood cells, using parasite LDH activity as an index of growth. Test compounds present at 2uM
Assay type: functional

The following molecules have reported results that may help.
Cc1nc(-c2ccc3c(c2)CCN(CCC2CCC(NC(=O)c4cc5cccc(Cl)c5[nH]4)CC2)CC3)no1.Cl (stereo not given) | 46%
O=C(C=Cc1ccccc1)Nc1ccc(C#CC=Cc2ccc(NC(=O)C=Cc3ccccc3)cc2)cc1 | 3%

Identify Inhibition associated with the molecule CC(=O)N(C)c1cccc(C(=O)Nc2cccc(-c3ccc(-c4nc5cc(C(F)(F)F)ccc5[nH]4)cc3)c2)c1
31%

Note down Inhibition recorded for O=C(O)C(F)(F)F.O=S(=O)(/C=C/c1ccccc1)N(Cc1ccc(-c2ccc(CNCCc3ccccc3)cc2)cc1)CC1CCCCN1 (stereo not given)
96%

Answer with the recorded Inhibition for the molecule listed here: CCOC(=O)CNC(=O)N(CCN(Cc1ccccc1)C(=O)NCC(=O)OCC)Cc1ccccc1
0%
